Attribute: PPARγ
target: hPPARγ1 (Homo sapiens, UniProt P37231); construct: expressed in transfected cells; host or cells: HEK-293; experiment: Determination of hPPARγ activity (GAL4 fusion luciferase reporter in transfected HEK-293 cells); type: cell-based; details: compound concentration 1 μM
Sequence (P37231 238-503 limits assumed): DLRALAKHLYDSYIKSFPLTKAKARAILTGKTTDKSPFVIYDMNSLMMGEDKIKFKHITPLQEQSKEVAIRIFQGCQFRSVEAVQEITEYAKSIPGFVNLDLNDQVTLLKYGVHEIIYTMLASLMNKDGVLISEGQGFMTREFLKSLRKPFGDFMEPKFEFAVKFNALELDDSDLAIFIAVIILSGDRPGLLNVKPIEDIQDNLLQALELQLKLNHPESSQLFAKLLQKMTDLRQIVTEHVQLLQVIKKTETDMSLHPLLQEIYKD
measurement type: PPARγ

compound | number
CCCc1nn(C)c2c(=O)n(CCOc3ccc(C[C@H](OCC)C(=O)O)cc3)c(CC)nc12 [Example 38] | 12.0
CCCc1nn(C)c2c(=O)n(CCOc3ccc(C[C@H](OCC)C(=O)O)cc3)c(CC)nc12 [Example 41] | 13.0
CCO[C@@H](Cc1ccc(OCCn2c(CC)nc3ccccc3c2=O)cc1)C(=O)O | 27.0
CCCc1nn(C)c2c(=O)n(CCOc3ccc(C[C@H](OCC)C(=O)[O-])cc3)c(C)nc12.[Na+] | 13.0
CCCc1nn(C)c2c(=O)n(CCOc3ccc(C[C@H](OCC)C(=O)O)cc3)c(CC)nc12 [Example 36] | 11.4
CCCc1nn(C)c2c(=O)n(CCOc3ccc(CC(OCC)C(=O)[O-])cc3)c(C)nc12.CCCc1nn(C)c2c(=O)n(CCOc3ccc(CC(OCC)C(=O)[O-])cc3)c(C)nc12.[Mg+2] (stereo not shown) | 13.5
CCCc1nn(C)c2c(=O)n(CCOc3ccc(C[C@H](OCC)C(=O)O)cc3)c(C)nc12 | 11.5

###

Measured AUC(0-t) accompanies every entry in the list below.
test: Single dose oral pharmacokinetic studies in male Wistar rats; assay type: in vivo, rat; details: fasted, suspension in 0.25% sodium CMC
measurement type: AUC(0-t) (ng·h/mL)

compound | number
CCO[C@@H](Cc1ccc(OCCn2c(CC)nc3ccccc3c2=O)cc1)C(=O)O [Example 7] | 51650
CCCc1nn(C)c2c(=O)n(CCOc3ccc(CC(OCC)C(=O)[O-])cc3)c(CC)nc12.CCCc1nn(C)c2c(=O)n(CCOc3ccc(CC(OCC)C(=O)[O-])cc3)c(CC)nc12.[Mg+2] (single isomer, unassigned; (-)) | 64700
CCO[C@@H](Cc1ccc(OCCn2c(CC)nc3ccccc3c2=O)cc1)C(=O)O [Example 10] | 75890
CCCc1nn(C)c2c(=O)n(CCOc3ccc(C[C@H](OCC)C(=O)O)cc3)c(CC)nc12 | 99330

###

Reported Tmax values for a set of molecules
test: Single dose oral pharmacokinetic studies in male Wistar rats; format: in vivo, rat; conditions: male, Wistar, rat, plasma, po, 30 mg/kg, fasted, suspension in 0.25% sodium CMC, read-out: Tmax

smiles code | unit name | Tmax
CCO[C@@H](Cc1ccc(OCCn2c(CC)nc(-c3ccccc3)cc2=O)cc1)C(=O)O | min | 30
CCO[C@@H](Cc1ccc(OCCn2c(CC)nc(-c3ccccc3)cc2=O)cc1)C(=O)[O-].[K+] | min | 79.8
CCO[C@@H](Cc1ccc(OCCn2c(CC)nc(-c3ccccc3)cc2=O)cc1)C(=O)[O-].[Na+] | min | 30
CCO[C@@H](Cc1ccc(OCCn2c(CC)nc3ccccc3c2=O)cc1)C(=O)O | min | 30

###

test: Single dose oral pharmacokinetic studies in male Wistar rats; assay type: in vivo, rat; details: male, Wistar, rat, plasma, po, 30 mg/kg, fasted, suspension in 0.25% sodium CMC
measurement type: AUC(0-inf) (ng·h/mL)

smiles code | measurement type | unit name | number
CCO[C@@H](Cc1ccc(OCCn2c(CC)nc(-c3ccccc3)cc2=O)cc1)C(=O)O | AUC(0-inf) | ng·h/mL | 92600
CCO[C@@H](Cc1ccc(OCCn2c(CC)nc(-c3ccccc3)cc2=O)cc1)C(=O)[O-].[Na+] | AUC(0-inf) | ng·h/mL | 83300
CCO[C@@H](Cc1ccc(OCCn2c(CC)nc3ccccc3c2=O)cc1)C(=O)O | AUC(0-inf) | ng·h/mL | 38400
CCCc1nn(C)c2c(=O)n(CCOc3ccc(C[C@H](OCC)C(=O)O)cc3)c(CC)nc12 | AUC(0-inf) | ng·h/mL | 78600
CCO[C@@H](Cc1ccc(OCCn2c(CC)nc(-c3ccccc3)cc2=O)cc1)C(=O)[O-].[K+] | AUC(0-inf) | ng·h/mL | 62900
